Origin of the recorded values: patent US20030203975A1

test: In vitro cytotoxicity against CHO cell lines (MTT assay); format: cell-based; details: Chinese hamster, CHO-K1 cells; MTT assay after 24 hours exposure
experimental-endpoint: IC50 at 24 h (µM)
Write it as a number; the unit µM goes unstated.

>>> val("C[C@@H](N)C(=O)OCCCCNc1cccc2c1C(=O)c1ccccc1C2=O.O=C(O)C(F)(F)F [Example 45, trifluoroacetate]")
40.5

Query: Look at this compound and give its reported IC50 at 24 h. C[C@H](N)C(=O)OCCCCNc1cccc2c1C(=O)c1ccccc1C2=O.O=C(O)C(F)(F)F [Example 43, trifluoroacetate]
Reply: 54

====

test system: MAC 15A adenocarcinoma of the colon; assay: In vitro chemosensitivity against MAC 15A adenocarcinoma (MTT assay); assay type: cell-based; settings: Mus musculus, MAC15A, 96 hours continuous exposure
Structures can show the parent of a compound that is named as a salt.
experimental-endpoint: IC50
Answers without a unit are incomplete; give the number and then its unit.

>>> val("CC(C)C[C@H](N)C(=O)NCC(=O)OCCCNc1cccc2c1C(=O)c1ccccc1C2=O.O=C(O)C(F)(F)F [Example 133, trifluoroacetate]")
"1.2 µM"

Query: Look at this compound and give its reported IC50. NCC(=O)OCCCCNc1cccc2c1C(=O)c1ccccc1C2=O [Example 81, trifluoroacetate]
Reply: 9.4 µM

Query: GET /values?readout=IC50&item= C[C@H](N)C(=O)OCCCCNc1cccc2c1C(=O)c1ccccc1C2=O.O=C(O)C(F)(F)F [Example 43, trifluoroacetate]
Reply: 2.6 µM

Query: Given the compound N[C@H](Cc1ccccc1)C(=O)OCCCNc1cccc2c1C(=O)c1ccccc1C2=O.O=C(O)C(F)(F)F , what is its reported IC50?
Reply: 4.8 µM

Query: If you can, please state the reported IC50 value of CC[C@H](N)C(=O)OCCCCNc1cccc2c1C(=O)c1ccccc1C2=O.O=C(O)C(F)(F)F [Example 87, trifluoroacetate] .
Reply: 3 µM
